Biological target: CAMK2D (human) (UniProt Q13557)
Sequence (Q13557 whole entry, looked up): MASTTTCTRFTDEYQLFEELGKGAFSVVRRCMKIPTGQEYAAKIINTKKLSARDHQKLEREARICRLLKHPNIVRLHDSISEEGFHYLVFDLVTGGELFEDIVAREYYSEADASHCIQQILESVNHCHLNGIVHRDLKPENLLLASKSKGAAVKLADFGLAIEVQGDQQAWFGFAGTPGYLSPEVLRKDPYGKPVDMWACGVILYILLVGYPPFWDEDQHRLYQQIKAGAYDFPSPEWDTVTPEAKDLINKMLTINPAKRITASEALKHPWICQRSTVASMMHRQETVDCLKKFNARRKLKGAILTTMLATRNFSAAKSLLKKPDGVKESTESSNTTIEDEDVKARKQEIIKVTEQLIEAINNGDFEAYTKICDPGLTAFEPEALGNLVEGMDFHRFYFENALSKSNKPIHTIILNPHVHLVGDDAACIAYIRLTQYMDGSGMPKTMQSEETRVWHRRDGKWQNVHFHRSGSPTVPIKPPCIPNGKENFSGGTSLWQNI
Test: radiometric filter-binding kinase assay, Kinase HotSpot
Settings: compound 0.5 µM; ATP 10 µM

{"columns": ["structure.string", "residual activity"],
 "data": [
  ["N#C/C(=C1/Nc2ccccc2S1)c1ccnc(NCCc2cccnc2)n1", "89.3%"],
  ["COc1cc2c(Nc3ccc(Br)cc3F)ncnc2cc1OCC1CCN(C)CC1", "95.8%"],
  ["FC(F)(F)c1ccc(/C=C/c2nc(COc3ccc(CCCCn4ccnn4)cc3)co2)cc1", "109%"],
  ["COc1cc2c(N3CCN(C(=O)Nc4ccc(OC(C)C)cc4)CC3)ncnc2cc1OCCCN1CCCCC1", "106%"],
  ["O=c1c(-c2ccc(F)cc2)c(-c2ccncc2)[nH]n1-c1ccc(Cl)cc1", "95.6%"],
  ["Cn1cc(/C=C2\\C(=O)Nc3ccc(S(N)(=O)=O)cc32)c2ccccc21", "66.8%"],
  ["COc1cc2ncnc(Nc3ccc(O)c(Br)c3)c2cc1OC", "95.7%"],
  ["COc1cccc(-c2cc(=O)c3ccccc3o2)c1N", "91.5%"],
  ["O=c1cc(N2CCOCC2)oc2c(-c3ccccc3)cccc12", "100%"]
]}
